Exercise: for every item that follows, state its recorded % Pass/fail control.
# target.of.assay: HLA-A*0201 (human, UniProt A*02:01)
# assay.procedure: REVEAL MHC binding assay (ProImmune)

• GMVFSLLQV [Peptide ID 99 GMVFSLLQV (CD127)] = 175 % of pass/fail control
• FLLLTISLL [Peptide ID 88 FLLLTISLL (CD52)] = 302 % of pass/fail control
• PLWGGIMYI [Peptide ID 10 PLWGGIMYI (CD20)] = 155 % of pass/fail control
• FLPDAFVTV (Modified peptide) [Peptide ID 133 FLPDAFVTV (TdT, modified peptide)] = 204 % of pass/fail control
• YLAVGIMFL [Peptide ID 5 YLAVGIMFL (CD64)] = 155 % of pass/fail control

Below is a list of binders. For each, state its recorded % Pass/fail control.
1. GLLSPQAQV [Peptide ID 33 GLLSPQAQV (FLT3)]
2. SLFLGILSV (also called peptide #19; pep 19) [Peptide ID 19 SLFLGILSV (CD20)]
3. ALARGLPGV (Modified peptide) [Peptide ID 143 ALARGLPGV (CD7, modified peptide)]

-- reply
["170 % of pass/fail control", "160 % of pass/fail control", "297 % of pass/fail control"]
